EXPERIMENT: NCI Yeast Anticancer Drug Screen. Data for the rad14 strain (AID 159);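 note: 0% = growth of vehicle-treated control cultures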
CONDITION NOTES: S. cerevisiae rad14 strain growth inhibition; at 3.7 µM
About 79,000 compounds went through this panel and 15% of them were active in at least one assay; those are over-represented in the sample as a whole. The source made the active and inactive calls. Cut-off read from the data, not from the text of the source: active = growth inhibition above about 70%; inactive = the rest.
Respond using exactly one of the listed classes: active, inactive

Use these answered entries as a reference point.
COMPOUND STRUCTURE: CC1=Cc2ccc(C)cc2C(=O)C1=O
GROUP: inactive
--
COMPOUND STRUCTURE: [Cl][Pt+2][Cl].[NH-]CC1(C[NH-])CCCCC1
GROUP: inactive
--
COMPOUND STRUCTURE: COc1ccc2nc3cccc([N+](=O)[O-])c3c(NCCCO)c2c1
GROUP: active

INPUT: Dear colleague, could you share the recorded outcome for O=Cn1c2ccccc2c2ccccc21 when you have a moment?
OUTPUT: inactive

INPUT: Same question for [O-]c1c2cc(-[n+]3c(-c4ccccc4)cc(-c4ccccc4)cc3-c3ccccc3)cc1COCCOCCOCCOCCOC2 please.
OUTPUT: inactive

INPUT: Same question for O=C(Cc1ccccc1)c1ccc(O)cc1 please.
OUTPUT: inactive

INPUT: Same question for Cc1cnccc1N=Nc1ccc(N(C)C)cc1 please.
OUTPUT: inactive

====

Examples of compounds with documented growth inhibition follow.
EXPERIMENT: NCI Yeast Anticancer Drug Screen. Data for the cln2 rad14 strain (AID 165);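 note: 0% = growth equal to vehicle treated cultures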
CONDITION NOTES: S. cerevisiae cln2 rad14 strain, at 5.0 µM (retest, dose inferred, filed as 0.5), hits give high values
Compounds without any hit were thinned out: in the full panel of roughly 79,000, 15% have a hit.
Please state the figure in %; there is no need to write the unit.

As a guide, the following entries are already answered.
COMPOUND STRUCTURE: c1cncc(C(Nc2cccc3cccnc23)Nc2cccc3cccnc23)c1
growth inhibition / %: 1
--
COMPOUND STRUCTURE: Cc1[nH]nc(C(F)(F)F)c1N=NN(C)C
growth inhibition / %: 81
--
COMPOUND STRUCTURE: O=c1[nH]c(=O)n(CCCO)cc1F
growth inhibition / %: 13
--
COMPOUND STRUCTURE: Oc1ccc(Cc2nccc3cc(O)c(O)cc23)cc1O
growth inhibition / %: 43
--
COMPOUND STRUCTURE: O=C(c1c(F)c(F)c(F)c(F)c1F)c1c(F)c(F)c(F)c(F)c1F
growth inhibition / %: 38

Okay, now this compound:
INPUT: For the compound CCc1nc2ccc(N=Nc3c(O)ccc4ccccc34)cc2[nH]1 , what growth inhibition is on record?
OUTPUT: 9

====

EXPERIMENT: NCI Yeast Anticancer Drug Screen. Data for the bub3 strain (AID 167)
CONDITION NOTES: S. cerevisiae bub3 mutant strain, at 11.0 µM
Compounds without any hit were thinned out: in the full panel of roughly 79,000, 15% have a hit. Active and inactive are the calls of the source. No stated cut-off is given here; in the data, active means growth inhibition above about 70%; inactive means the rest.
Respond using exactly one of the listed classes: active, inactive

Use these answered entries as a reference point.
COMPOUND: N#C/C(=C1C=C/C(=N\O)C(Cl)=C\1)c1ccccc1
GROUP: inactive

COMPOUND: Cc1c(N=Nc2ccc(Cl)cc2)c(C)n(C2OC(CO)C(O)C(O)C2O)c(=S)c1C#N (centres undefined)
GROUP: inactive

COMPOUND: Cc1ccc2c(/C=C/c3ccc(N(C)C)cc3)ccnc2c1C
GROUP: inactive

INPUT: Dear colleague, could you share the recorded outcome for O=Cn1c2ccccc2c2ccccc21 when you have a moment?
OUTPUT: inactive

INPUT: Same question for CN(C)c1ccc(/C=C/c2ccnc3ccc4ccccc4c23)cc1 please.
OUTPUT: inactive

INPUT: Same question for CC1(C)CC(=O)C(C(CC(c2ccccc2)c2cc3c(cc2O)OCO3)C2=C(O)CC(C)(C)CC2=O)=C(O)C1 (centres undefined) please.
OUTPUT: inactive

INPUT: Same question for CN(C)c1ccc(C(c2ccc(Cl)cc2)c2ccc(N(C)C)cc2)cc1 please.
OUTPUT: active

INPUT: Same question for Nc1ccc2ncc(Nc3ccc(Cl)c(Cl)c3)nc2c1 please.
OUTPUT: inactive

INPUT: Same question for O=C(CSS(=O)(=O)O)c1ccccc1 please.
OUTPUT: inactive

INPUT: Same question for COc1ccc(CCN2C(=O)C=CC2=O)cc1OC please.
OUTPUT: active

INPUT: Same question for OC(c1ccc(Br)cc1)(c1cccs1)C1CC1 (centres undefined) please.
OUTPUT: inactive

INPUT: Same question for O=[N+]([O-])c1cccc2nc3ccccc3c(NCCC[N+]3([O-])CCOCC3)c12 please.
OUTPUT: inactive

INPUT: Same question for CCCCCCCCCC/C=C\CC(=O)O please.
OUTPUT: inactive

INPUT: Same question for CCC1SC(=S)N(c2ccc(Cl)cc2)C1=O (centres undefined) please.
OUTPUT: inactive

INPUT: Same question for C#CC1=CC(=O)C(OC)=CC1=O please.
OUTPUT: active

INPUT: Same question for O=C1c2ccc(O)cc2C(=O)c2c(O)ccc(O)c21 please.
OUTPUT: inactive

INPUT: Same question for O=C(Cc1ccccc1F)NC1=C(Cl)C(=O)c2ccccc2C1=O please.
OUTPUT: inactive

INPUT: Same question for Cc1ccc(SSc2ccc(C)cc2[N+](=O)[O-])c([N+](=O)[O-])c1 please.
OUTPUT: inactive

INPUT: Same question for CC(C)(C)[Si](C)(C)OCC1OC(n2cnc3c(N)ncnc32)C2OC(=S)OC12 (centres undefined) please.
OUTPUT: inactive

INPUT: Same question for O=C(CCC(=O)c1ccc(O)cc1)Oc1ccc(O)cc1 please.
OUTPUT: inactive

INPUT: Same question for CC(C)c1ccc(C2NC(=S)NC3=C2c2ccccc2C3=O)cc1 (centres undefined) please.
OUTPUT: inactive

INPUT: Same question for O=C(O)[C@H]1[C@@H](C2CCCCC2)O[C@@H](C2CCCCC2)O[C@H]1C(F)(F)F please.
OUTPUT: inactive

INPUT: Same question for O=C1C=CC(=Nc2ccc3c(c2)Cc2cc(Cl)ccc2-3)O1 please.
OUTPUT: active

INPUT: Same question for O=S(=O)(O)c1ccc2c(N=Nc3c(O)ccc4ccccc34)cccc2c1 please.
OUTPUT: inactive
